- measurement.description: NCI Yeast Anticancer Drug Screen. Data for the rad50 strain (AID 155);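 also: 0% = growth of vehicle-only cultures of the same strain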
- particulars: S. cerevisiae rad50 strain growth inhibition; at 50.0 µM; active compounds read high
About 79,000 compounds went through this panel and 15% of them were active in at least one assay; those are over-represented in the sample as a whole.
readout.name: growth inhibition (%)
Record the value in %, omitting the unit from your answer.

molecule: CCOc1ccccc1C(=O)OCCCc1ccccc1
growth inhibition (%): -1
--
molecule: COC(=O)C(/C(=N/N)C(=O)Nc1cccc(O)c1)c1nc2ccccc2[nH]c1=O (stereo unspecified)
growth inhibition (%): -39.1

Asked: Item O=C(C[n+]1ccccc1)c1cc2c(c3ccccc13)CCCC2 has what recorded growth inhibition?
Given back: 3.3

Asked: Item CCCCC1(O)C(=O)N(c2ccccc2)N(c2ccccc2)C1=O has what recorded growth inhibition?
Given back: 17.2

###

Listing: growth inhibition of selected molecules
- measurement.description: NCI Yeast Anticancer Drug Screen. Data for the mec2-1 strain (AID 157)
- particulars: S. cerevisiae mec2-1 strain, at 50.0 µM, active compounds read high
This is part of a sample that, as a whole, favours compounds with a hit. Of some 79,000 tested, about 15% had one in any assay.
Record the value in %, omitting the unit from your answer.

molecule: CCCCn1cnc2ccc(N)cc2c1=O
readout.units: %
growth inhibition: 1.85

molecule: O=C(NC(=O)c1ccccc1)OC(c1ccccc1)C1CO1 (configuration not stated)
readout.units: %
growth inhibition: 9.65

molecule: C[C@@]12CCC(=O)C=C1CC[C@H]1C2C(=O)C[C@]2(C)C1CC[C@@]2(O)C(=O)COC(=O)CCC(=O)O (some centres not stated)
readout.units: %
growth inhibition: 10.3

molecule: CCOC(=O)CCC(NC1=C(Cl)C(=O)c2ccccc2C1=O)C(=O)O (configuration not stated)
readout.units: %
growth inhibition: 2.15

Asked: Item NC1C=NNC1=O (configuration not stated) has what recorded growth inhibition?
Given back: -7.95

Asked: Item C=CCn1c(=O)c(C(=O)Nc2nc(C34CC5CC(CC(C5)C3)C4)cs2)c(O)c2ccccc21 has what recorded growth inhibition?
Given back: -4.6

Asked: Item CCO/C=C1/N=C(c2ccc3ccccc3c2)OC1=O has what recorded growth inhibition?
Given back: 9.8

Asked: Item C[Si](C)(C)O/C=C1/CCOC1=O has what recorded growth inhibition?
Given back: 45.7

Asked: Item NCc1ccc(Cl)cc1 has what recorded growth inhibition?
Given back: -2.65

Asked: Item S=C1NCCN1c1ccc(Cl)cc1 has what recorded growth inhibition?
Given back: -16.1

Asked: Item CC(=O)CCc1ccc2c(c1)OCCO2 has what recorded growth inhibition?
Given back: -10.7

Asked: Item N#CC(CC(=O)c1ccccc1)c1ccc(Cl)cc1 (configuration not stated) has what recorded growth inhibition?
Given back: 4.45

Asked: Item CC1OCOC(CO)C(O)C1O (configuration not stated) has what recorded growth inhibition?
Given back: 1.55

Asked: Item Cn1c[n+](C)c([S-])n1 has what recorded growth inhibition?
Given back: 2.6

Asked: Item CC1=CC(=O)N2CCN=C2S1 has what recorded growth inhibition?
Given back: -14.9

Asked: Item Cc1cccc(C(C)C)c1NC(=O)C(=O)C(C#N)c1ccc(CC#N)cc1 (configuration not stated) has what recorded growth inhibition?
Given back: 2.4

Asked: Item Cc1ccccc1C(=O)c1ccccc1Cc1cccc2ccccc12 has what recorded growth inhibition?
Given back: -10.3

Asked: Item CC(CO)c1ccccc1 (configuration not stated) has what recorded growth inhibition?
Given back: 1.15

Asked: Item CCOP(C)(=O)C(Cc1c[nH]c2ccccc12)C(=O)O (configuration not stated) has what recorded growth inhibition?
Given back: -19.7

Asked: Item CN1C(=O)C2CSCN2C1=S (configuration not stated) has what recorded growth inhibition?
Given back: -7.7

###

- measurement.description: NCI Yeast Anticancer Drug Screen. Data for the cln2 rad14 strain (AID 165);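 also: 0% = growth equal to vehicle treated cultures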
- particulars: S. cerevisiae cln2 rad14 strain, at 50.0 µM, active compounds read high
About 79,000 compounds went through this panel and 15% of them were active in at least one assay; those are over-represented in the sample as a whole.
readout.name: growth inhibition (%)
Record the value in %, omitting the unit from your answer.

compound: FC(F)(F)C1(C(F)(F)F)OI2(Br)(OC(C(F)(F)F)(C(F)(F)F)c3ccccc32)c2ccccc21
readout.name: growth inhibition
readout.units: %
recorded.number: 21.2

compound: CCOC1CS(=O)(=O)CC(OCC)O1 (stereo not drawn)
readout.name: growth inhibition
readout.units: %
recorded.number: -30.6

compound: COc1ccc(/C(C#N)=C\c2ccc(N(C)C)cc2)cc1
readout.name: growth inhibition
readout.units: %
recorded.number: -21.2

Asked: Item CCOc1ccccc1C(=O)Nc1cc(Cl)ccc1Cl has what recorded growth inhibition?
Given back: -4.8

Asked: Item CC1(c2ccc(C(O)c3ccccc3)s2)OCCO1 (stereo not drawn) has what recorded growth inhibition?
Given back: 12.9

Asked: Item C=C(C)CN(CC(=C)C)C(C)=O has what recorded growth inhibition?
Given back: -6.15

Asked: Item C=C(CO)[C@H]1Oc2ccc(C(C)=O)cc2[C@@H]1O has what recorded growth inhibition?
Given back: 6.85

Asked: Item COP(=O)(OC)C1c2cc(Cl)ccc2-c2c(Cl)cc(Cl)cc21 (stereo not drawn) has what recorded growth inhibition?
Given back: 49.5

Asked: Item CC(C)(C)NC(=S)NC1CC2CC1C1Cc3ccccc3C21 (stereo not drawn) has what recorded growth inhibition?
Given back: -37.5

Asked: Item CC(C)CCCC(C)C1CCC2C3CC(=O)C4C=CCCC4(C)C3CCC12C (stereo not drawn) has what recorded growth inhibition?
Given back: 24

Asked: Item Nc1ccc(F)c(F)c1 has what recorded growth inhibition?
Given back: -20

Asked: Item Cc1ccc(C(=O)/C=C/c2ccc3c(c2)OCO3)c(C)c1 has what recorded growth inhibition?
Given back: -6.7

Asked: Item Oc1cc(O)cc(/C=C/c2ccc(O)c(O)c2)c1 has what recorded growth inhibition?
Given back: 5.95

Asked: Item Nc1[nH]c(=S)[nH]c(=O)c1NS(=O)(=O)c1ccccc1 has what recorded growth inhibition?
Given back: -4.85

Asked: Item CCOC(=O)NC(=O)c1cn(CCCCCCCCCCC(=O)NCCCN2CCN(CCCNC(=O)CCCCCCCCCCn3cc(C(=O)NC(=O)OCC)c(=O)[nH]c3=O)CC2)c(=O)[nH]c1=O has what recorded growth inhibition?
Given back: -27.4

Asked: Item O=c1[nH]c(Sc2ccccc2)nc2ccccc12 has what recorded growth inhibition?
Given back: -58.1

Asked: Item O=C1CCc2cc3c(cc21)CC1(Cc2cc4c(cc2C1)CCCC4)C3 has what recorded growth inhibition?
Given back: -18.1

Asked: Item CCCCCC(Cl)(CC)CCCCC has what recorded growth inhibition?
Given back: -39.7

###

Listing: growth inhibition of selected compounds
- measurement.description: NCI Yeast Anticancer Drug Screen. Data for the mec2-1 strain (AID 157)
- particulars: S. cerevisiae mec2-1 strain, at 50.0 µM, active compounds read high
The panel holds about 79,000 compounds, 15% with a hit somewhere; the sample as a whole holds those more often.
Record the value in %, omitting the unit from your answer.

compound: CC(=O)c1ccc(N2C(=O)CC(NC3CCCCC3)C2=O)cc1 (stereo unspecified)
growth inhibition / %: 7.1
--
compound: CCCCCCC(N)(CCCCCC)C(=O)Nn1c(C)ccc1C
growth inhibition / %: 13.1
--
compound: CC1(c2ccc[n+](Cc3ccccc3)c2)OCCO1
growth inhibition / %: -31.1
--
compound: CC[C@]12C=CCN3CCC4(c5cc([C@@]6(C(=O)OC)CC7CN(CCc8c6[nH]c6ccccc86)C[C@@H]6CCC[C@H]76)c(OC)cc5N(C)C4[C@](O)(C(=O)OC)C1OC(C)=O)C32 (stereo partly specified)
growth inhibition / %: 3.8

Asked: Item CC1CC(C)C2=NOS3=C2C1=NO3 (stereo unspecified) has what recorded growth inhibition?
Given back: 16.6

Asked: Item CC(C)(C)[N+](=O)[O-] has what recorded growth inhibition?
Given back: -27.1

Asked: Item NNC(=O)c1c[nH]c2ccccc2c1=O has what recorded growth inhibition?
Given back: 13.1

Asked: Item O=C(c1ccc(Cl)cc1)c1onc(-c2ccccc2)c1-c1ccccc1 has what recorded growth inhibition?
Given back: 0

Asked: Item O=C(NCCCBr)Nc1cccc2c1CCCC2 has what recorded growth inhibition?
Given back: 5.9

Asked: Item CCOC(=O)C1=C(O)c2ccccc2S(=O)(=O)N1C (tested in a mixture with another compound) has what recorded growth inhibition?
Given back: 20.3

###

- measurement.description: NCI Yeast Anticancer Drug Screen. Data for the mec2-1 strain (AID 157)
- particulars: S. cerevisiae mec2-1 strain, at 50.0 µM, active compounds read high
The panel holds about 79,000 compounds, 15% with a hit somewhere; the sample as a whole holds those more often.
Listing: growth inhibition of selected compounds
Record the value in %, omitting the unit from your answer.

Answered cases to consult:
compound: O=C(NN1C(=O)C(Cl)C1c1ccccc1Cl)c1ccccc1O (stereo unspecified)
readout.name: growth inhibition
readout.units: %
recorded.number: -35.9
--
compound: CSC1(C)C(=O)Nc2cccc([N+](=O)[O-])c21 (stereo unspecified)
readout.name: growth inhibition
readout.units: %
recorded.number: -20.1
--
compound: CN1c2ccccc2C(=O)NC12CCN(CC1COc3ccccc3O1)CC2 (stereo unspecified)
readout.name: growth inhibition
readout.units: %
recorded.number: 71.4
--
compound: CC(C(O)c1ccc(Cl)cc1)C(O)(C(F)(F)F)C(F)(F)F (stereo unspecified)
readout.name: growth inhibition
readout.units: %
recorded.number: 99.3
--
compound: CS(=O)(=O)N/N=C/C1C=CC=CC1 (stereo unspecified)
readout.name: growth inhibition
readout.units: %
recorded.number: 0.7

Shifting focus to the compound that follows.
Asked: Item CC(C)(/C=N\O)NO has what recorded growth inhibition?
Given back: -20.4
